- test_method_notes: plasma stability (Plasma Assay Protocol)
- Assay type: in vitro ADME
- condition: 37° C., t1/2 extrapolated if >50% remaining at 60 min, ∞ if near 100% remaining
recorded_metric: log10(half-life at 2 µM) (log10 of the value in h)
Remember, log10 of half-life at 2 µM, in h.

Problem: What log10(half-life at 2 µM) value was documented for this molecule, CN(C)CCCOc1ccc2c(=O)n(CC3(O)CCN(C(=O)C(CCCNC(=O)c4ccc5c(Cl)c6c(nc5c4)CCCC6)Cn4ccc(F)n4)CC3)cnc2c1 (centres unmarked) ?
Solution: 0.82

Problem: Given CN(C)CCC(=O)Nc1ccc2c(=O)n(CC3(O)CCN(C(=O)C(CCCNC(=O)c4ccc5c(F)ccnc5c4)Cc4ccccc4)CC3)cnc2c1 (centres unmarked) , state its recorded log10(half-life at 2 µM).
Solution: 0.00

Problem: Given the molecule CN1CCN(c2ccc3c(=O)n(CC4(O)CCN(C(=O)[C@H](CCCNC(=O)c5ccc6c(Cl)cc(C7CC7)nc6c5)Cc5ccccc5)CC4)cnc3c2)CC1 , what is its reported log10(half-life at 2 µM)?
Solution: 0.58

Problem: Bench note: what log10(half-life at 2 µM) did CN(C)CCOc1cc(F)c2c(=O)n(CC3(O)CCN(C(=O)C4CCN(CCNC(=O)c5ccc6c(Cl)ccnc6c5)CC4c4ccccc4)CC3)cnc2c1 (centres unmarked) show?
Solution: 0.71

Problem: Requested field: log10(half-life at 2 µM). Item: CN1CCN(CCC(=O)Nc2ccc3c(=O)n(CC4(O)CCN(C(=O)C(CCCNC(=O)c5ccc6c(Cl)ccnc6c5)Cc5ccccc5)CC4)cnc3c2)CC1 (centres unmarked)
Solution: 0.74

Problem: I have this molecule here, CN(C)CCCOc1ccc2c(=O)n(CC3(O)CCN(C(=O)C(CCCNC(=O)c4ccc5c(Cl)cc(C6CC6)nc5c4)Cn4ccc(F)n4)CC3)cnc2c1 (centres unmarked) , and I need its recorded log10(half-life at 2 µM).
Solution: 0.50

Problem: Consider the molecule shown here: CN(C)CCCOc1ccc2c(=O)n(CC3(O)CCN(C(=O)[C@@H](CCCNC(=O)c4ccc5c(Cl)c6c(nc5c4)CCCC6)Cn4ccc(F)n4)CC3)cnc2c1 What is its recorded log10(half-life at 2 µM)?
Solution: 0.33

Problem: Reported log10(half-life at 2 µM) for CN(C)CCCOc1ccc2c(=O)n(CC3(O)CCN(C(=O)C(CCCNC(=O)c4ccc5c(Cl)c(C(N)=O)cnc5c4)Cn4ccc(F)n4)CC3)cnc2c1 (centres unmarked) : what is it?
Solution: 0.16

Problem: Reported log10(half-life at 2 µM) for CN1CCN(CCOc2ccc3c(=O)n(CC4(O)CCN(C(=O)C(CCCNC(=O)c5ccc6c(Cl)ccnc6c5)Cc5ccccc5)CC4)cnc3c2)CC1 (centres unmarked) : what is it?
Solution: 2.05

Problem: Returns the measured log10(half-life at 2 µM) for the input molecule. Input: C=CC(=O)Nc1ccccc1-c1ccc(C(=O)N2CCC(O)(Cn3cnc4cc(NC(=O)CCN5CCN(C)CC5)ccc4c3=O)CC2)cc1
Solution: -0.42

Problem: Request the reported log10(half-life at 2 µM) associated with CN(C)CCCOc1ccc2c(=O)n(CC3(O)CCN(C(=O)[C@@H](CCCNC(=O)c4ccc5c(Cl)c(C(N)=O)cnc5c4)Cn4ccc(F)n4)CC3)cnc2c1
Solution: 0.16

Problem: Dear colleague, I am looking for the recorded log10(half-life at 2 µM) of the following molecule: CN1CCN(CCC(=O)Nc2ccc3c(=O)n(CC4(O)CCN(C(=O)[C@@H](CCCNC(=O)c5ccc6c(Cl)ccnc6c5)Cc5ccccc5)CC4)cnc3c2)CC1
Solution: 0.12

Problem: Tell me the measured log10(half-life at 2 µM) of CN1CCN(CCC(=O)Nc2ccc3c(=O)n(CC4(O)CCN(C(=O)[C@@H](CCCNC(=O)c5ccc6c(Cl)cc(-c7cnn(CC(F)(F)F)c7)nc6c5)Cc5ccccc5)CC4)cnc3c2)CC1 , please.
Solution: 0.58

Problem: Any idea what its log10(half-life at 2 µM) is? The molecule is O=C(CCN1CCNCC1)Nc1ccc2c(=O)n(CC3(O)CCN(C(=O)C(CCCNC(=O)c4ccc5c(Cl)ccnc5c4)Cc4ccccc4)CC3)cnc2c1 (centres unmarked)
Solution: 0.51

Problem: // lookup log10(half-life at 2 µM) for CN(C)CCC(=O)Nc1ccc2c(=O)n(CC3(O)CCN(C(=O)[C@H](CCCNC(=O)c4ccc5c(Cl)c6c(nc5c4)CCC6)Cc4ccccc4)CC3)cnc2c1
Solution: 1.07

Problem: Name the recorded log10(half-life at 2 µM) for CN(C)CCCOc1ccc2c(=O)n(CC3(O)CCN(C(=O)[C@H](CCCNC(=O)c4ccc5c(Cl)c(C(N)=O)cnc5c4)Cc4ccccc4)CC3)cnc2c1 .
Solution: 0.27

Problem: // lookup log10(half-life at 2 µM) for C=CS(=O)(=O)Nc1ccccc1-c1ccc(C(=O)N2CCC(O)(Cn3cnc4cc(NC(=O)CCN5CCN(C)CC5)ccc4c3=O)CC2)cc1
Solution: -0.76

Problem: Tell me the measured log10(half-life at 2 µM) of CN1CCN(CCC(=O)Nc2ccc3c(=O)n(CC4(O)CCN(C(=O)C(CCCNC(=O)c5ccc6c(Cl)cc(C7CC7)nc6c5)Cc5ccccc5)CC4)cnc3c2)CC1 (centres unmarked) , please.
Solution: 0.35

Problem: Reported log10(half-life at 2 µM), molecule CN(C)CCC(=O)Nc1ccc2c(=O)n(CC3(O)CCN(C(=O)C4CCN(CCNC(=O)c5ccc6c(Cl)ccnc6c5)C[C@H]4c4ccccc4)CC3)cnc2c1 (some centres unmarked) : ____
Solution: 0.50

Problem: What value of log10(half-life at 2 µM) has been reported for the following molecule? C=CS(=O)(=O)Nc1ccccc1N1CCC(C(=O)N2CCC(O)(Cn3cnc4cc(NC(=O)CCN5CCN(C)CC5)ccc4c3=O)CC2)[C@H](c2ccccc2)C1 (some centres unmarked)
Solution: -0.76

###

I'd be grateful if you could share measured half-life at 1 µM for these entries.
- test_method_notes: mouse liver microsomal stability (Microsome Assay Protocol)
- Format: in vitro ADME
- condition: pH 7.4; mouse liver microsomes, NADPH, 37° C.; read-out: MLM t1/2, min
Field format: number, assumed min, no unit text.

Problem: # query: half-life at 1 µM of entry O=C(NCCCC(Cc1ccccc1)C(=O)N1CCC(O)(Cn2cnc(NCCN3CCCC3)cc2=O)CC1)c1ccc2c(Cl)ccnc2c1 (stereo not drawn)
Solution: 12.1

Problem: Requested field: half-life at 1 µM. Item: CN(C)CCC(=O)Nc1ccc2c(=O)n(CC3(O)CCN(C(=O)C(CCCNC(=O)N4CCc5c(Cl)ccnc5C4)Cc4ccccc4)CC3)cnc2c1 (stereo not drawn)
Solution: 8.3

Problem: What does the data say about its half-life at 1 µM? Entry: Cc1cc(Cl)c2ccc(C(=O)NCCCC(Cc3ccccc3)C(=O)N3CCC(O)(Cn4cnc5cc(NC(=O)CCN(C)C)ccc5c4=O)CC3)cc2n1 (stereo not drawn)
Solution: 13.5

###

- system: USP7, Active human recombinant protein (Homo sapiens, UniProt Q93009)
- Construct: purchased CP Lot; 20200225001
- Sequence (Q93009 whole entry): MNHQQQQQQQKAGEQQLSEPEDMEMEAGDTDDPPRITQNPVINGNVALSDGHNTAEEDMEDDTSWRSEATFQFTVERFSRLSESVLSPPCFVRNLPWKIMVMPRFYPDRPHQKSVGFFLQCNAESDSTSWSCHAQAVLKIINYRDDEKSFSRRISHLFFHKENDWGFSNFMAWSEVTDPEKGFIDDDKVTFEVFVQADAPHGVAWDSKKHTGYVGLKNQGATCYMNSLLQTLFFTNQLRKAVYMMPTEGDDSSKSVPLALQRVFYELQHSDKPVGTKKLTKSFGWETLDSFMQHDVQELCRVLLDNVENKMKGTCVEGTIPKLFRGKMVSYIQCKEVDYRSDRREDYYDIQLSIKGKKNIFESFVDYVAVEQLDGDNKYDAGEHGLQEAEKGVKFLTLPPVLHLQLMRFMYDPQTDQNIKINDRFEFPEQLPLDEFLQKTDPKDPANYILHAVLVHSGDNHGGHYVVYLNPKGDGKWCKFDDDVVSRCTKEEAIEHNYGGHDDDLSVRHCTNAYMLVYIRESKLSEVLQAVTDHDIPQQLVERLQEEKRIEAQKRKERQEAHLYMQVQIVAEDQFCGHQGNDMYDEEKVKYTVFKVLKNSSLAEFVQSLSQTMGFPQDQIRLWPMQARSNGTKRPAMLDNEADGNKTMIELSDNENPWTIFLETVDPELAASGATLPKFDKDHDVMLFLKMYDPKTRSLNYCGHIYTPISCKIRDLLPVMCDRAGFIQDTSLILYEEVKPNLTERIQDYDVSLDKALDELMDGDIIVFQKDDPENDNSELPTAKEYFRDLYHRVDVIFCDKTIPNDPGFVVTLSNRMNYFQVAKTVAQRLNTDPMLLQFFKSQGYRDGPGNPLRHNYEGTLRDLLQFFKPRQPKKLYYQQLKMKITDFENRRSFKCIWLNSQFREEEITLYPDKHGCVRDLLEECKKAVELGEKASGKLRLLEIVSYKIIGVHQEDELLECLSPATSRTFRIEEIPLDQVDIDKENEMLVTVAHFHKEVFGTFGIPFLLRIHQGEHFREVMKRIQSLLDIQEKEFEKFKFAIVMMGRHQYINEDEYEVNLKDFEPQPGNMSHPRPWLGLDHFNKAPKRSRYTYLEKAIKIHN
- test_method_notes: USP7 assay (Ubiquitin-Rhodamine 110 enzymatic assay)
- Assay type: biochemical
- condition: read-out: IC50
Would you mind telling me the reported IC50 of each entry?

Problem: Endpoint output: IC50 of O=C(CN1CCN(C(=O)c2ccc3c(Cl)c4c(nc3c2)CCCC4)CC1)N1CCC(O)(Cn2cnc3cc(Cl)ccc3c2=O)CC1 . Value?
Solution: > 1000 nM

Problem: I would be grateful if you could share the reported IC50 for CN1CCN(CCC(=O)Nc2ccc3c(=O)n(CC4(O)CCN(C(=O)C(CCCNC(=O)c5ccc6c(Cl)ccnc6c5)Cc5ccccc5)CC4)cnc3c2)CC1 (stereo not drawn) .
Solution: 20 to 100 nM

Problem: Reported IC50 for CN(C)CCC(=O)Nc1ccc2c(=O)n(CC3(O)CCN(C(=O)C(CCc4ncc(-c5ccc6c(Cl)ccnc6c5)o4)Cc4ccccc4)CC3)cnc2c1 (stereo not drawn) [Compound 77] : what is it?
Solution: 20 to 100 nM

Problem: Query (compound): CN(C)CCOc1cc(F)c2c(=O)n(CC3(O)CCN(C(=O)C4CCN(CCNC(=O)c5ccc6c(Cl)ccnc6c5)CC4c4ccccc4)CC3)cnc2c1 (stereo not drawn) [Compound 112] ; field requested: IC50
Solution: 100 to 1000 nM

Problem: What value of IC50 has been reported for the following compound? C=CC(=O)Nc1ccc(C#N)cc1N1CCC(C(=O)N2CCC(O)(Cn3cnc4cc(NC(=O)CCN5CCN(C)CC5)ccc4c3=O)CC2)C(c2ccccc2)C1 (stereo not drawn)
Solution: > 1000 nM

Problem: Give its IC50 value. Item: CN(C)CCC(=O)Nc1ccc2c(=O)n(CC3(O)CCN(C(=O)C(CCCNC(=O)c4ccc5c(Cl)c6c(nc5c4)CCOC6)Cc4ccccc4)CC3)cnc2c1 (stereo not drawn) [Compound 90]
Solution: 20 to 100 nM

Problem: Param item = CCc1cc(Cl)c2ccc(C(=O)NCCCC(Cc3ccccc3)C(=O)N3CCC(O)(Cn4cnc5cc(NC(=O)CCN(C)C)ccc5c4=O)CC3)cc2n1 (stereo not drawn) [Compound 79] ; retrieve measured IC50.
Solution: 20 to 100 nM

Problem: Returns the measured IC50 for the input compound. Input: CN(C)CCCOc1ccc2c(=O)n(CC3(O)CCN(C(=O)[C@H](CCCNC(=O)c4ccc5c(Cl)c(C(=O)N(C)C)cnc5c4)Cc4ccccc4)CC3)cnc2c1
Solution: 100 to 1000 nM

Problem: IC50 for C=CS(=O)(=O)Nc1ccccc1N1CCC(C(=O)N2CCC(O)(Cn3cnc4cc(NC(=O)CCN5CCN(C)CC5)ccc4c3=O)CC2)CC1 [Compound 92] ?
Solution: 20 to 100 nM
